Molecular target: ASK1 (Homo sapiens, UniProt Q99683)
Sequence (Q99683 1-1374): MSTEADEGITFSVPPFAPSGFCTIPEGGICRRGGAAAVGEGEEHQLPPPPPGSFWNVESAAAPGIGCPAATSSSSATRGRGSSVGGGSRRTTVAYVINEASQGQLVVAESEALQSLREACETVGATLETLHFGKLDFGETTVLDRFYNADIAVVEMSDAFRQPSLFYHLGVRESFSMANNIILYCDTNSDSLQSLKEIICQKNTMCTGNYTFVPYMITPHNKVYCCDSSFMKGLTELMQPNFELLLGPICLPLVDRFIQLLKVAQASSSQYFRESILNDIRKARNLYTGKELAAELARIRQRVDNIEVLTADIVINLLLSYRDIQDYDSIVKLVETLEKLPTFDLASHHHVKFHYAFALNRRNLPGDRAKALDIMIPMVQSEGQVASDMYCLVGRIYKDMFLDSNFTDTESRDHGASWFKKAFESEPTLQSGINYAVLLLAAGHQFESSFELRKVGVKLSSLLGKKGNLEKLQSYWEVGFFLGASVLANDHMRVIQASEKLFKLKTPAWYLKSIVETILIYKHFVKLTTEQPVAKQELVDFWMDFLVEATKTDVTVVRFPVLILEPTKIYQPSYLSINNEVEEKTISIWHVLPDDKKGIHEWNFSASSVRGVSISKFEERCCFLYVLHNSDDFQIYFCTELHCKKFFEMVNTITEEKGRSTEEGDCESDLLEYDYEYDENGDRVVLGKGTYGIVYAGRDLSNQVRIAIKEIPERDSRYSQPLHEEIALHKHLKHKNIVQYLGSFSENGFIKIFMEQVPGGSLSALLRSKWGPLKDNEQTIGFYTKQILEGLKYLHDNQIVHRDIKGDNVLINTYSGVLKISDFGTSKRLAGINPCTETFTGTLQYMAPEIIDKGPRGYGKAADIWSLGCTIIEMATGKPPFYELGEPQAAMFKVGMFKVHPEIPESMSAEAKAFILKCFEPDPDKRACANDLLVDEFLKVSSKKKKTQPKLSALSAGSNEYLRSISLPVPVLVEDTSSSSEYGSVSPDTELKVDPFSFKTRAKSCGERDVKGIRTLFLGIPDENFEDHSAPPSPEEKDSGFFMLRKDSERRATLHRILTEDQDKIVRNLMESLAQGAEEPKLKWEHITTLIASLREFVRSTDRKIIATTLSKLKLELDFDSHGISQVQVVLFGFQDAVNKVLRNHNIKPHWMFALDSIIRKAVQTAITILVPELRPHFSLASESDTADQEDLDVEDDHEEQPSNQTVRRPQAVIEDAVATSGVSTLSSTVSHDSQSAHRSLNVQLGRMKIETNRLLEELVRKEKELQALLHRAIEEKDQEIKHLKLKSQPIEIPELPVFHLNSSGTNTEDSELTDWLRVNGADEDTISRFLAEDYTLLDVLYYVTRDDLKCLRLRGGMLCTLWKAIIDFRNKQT
pIC50: −log10 of the molar value.
Assay endpoint: pIC50

Dear colleague, I am looking for the recorded pIC50 of the following compound: `CC(C)N(c1nc2ccc(C(=O)Nc3cccc(-c4nncn4C(C)C)n3)cc2s1)C(C)C`
7.00 to 8.00

====

Target: ASK1 (Homo sapiens)
Construct: purchased Thermofisher PV4011
Assay: HTRF KinEASE-STK TR-FRET kinase assay, inhibition of ASK1
Assay type: biochemical
Conditions: 5 nM ASK1, 1 uM STK3 peptide substrate, 100 uM ATP
Known IC50 of a selection of compounds

CC(C)n1cnnc1-c1cccc(NC(=O)c2cc3sc(N4CCC(C(C)(C)C)CC4)nc3cc2F)n1: 10 to 100 nM
CC(C)n1cnnc1-c1cccc(NC(=O)c2ccc3nc(N4CC5CCC(C4)O5)sc3c2)n1: 10 to 100 nM
CC(C)n1nnnc1-c1cccc(NC(=O)c2cc3sc(NC4CCCCC4)nc3cc2F)n1: > 1000 nM
CC(C)Nc1nc2ccc(C(=O)Nc3cccc(-c4nncn4C(C)C)n3)cc2s1: 100 to 1000 nM
CC(C)n1cnnc1-c1cccc(NC(=O)c2cc3sc(NC4CCCCC4)nc3cc2F)n1: 1 to 10 nM
CC(C)n1nnnc1-c1cccc(NC(=O)c2cc3sc(N(C)CC4CC4)nc3cc2F)n1: > 1000 nM

Dear colleague, I am looking for the recorded IC50 of the following compound: `CC(C)n1cnnc1-c1cccc(NC(=O)c2ccc3nc(N4CCC(F)(F)CC4)sc3c2)n1`
10 to 100 nM

Dear colleague, I am looking for the recorded IC50 of the following compound: `CC(C)n1cnnc1-c1cccc(NC(=O)c2cc3sc(N4CCCCC4)nc3cn2)n1`
1 to 10 nM

Dear colleague, I am looking for the recorded IC50 of the following compound: `CC(C)n1nnnc1-c1cccc(NC(=O)c2cc3sc(N4CCN(C(C)(C)C)CC4)nc3cn2)n1`
100 to 1000 nM

====

Known pIC50 of a selection of compounds
Biological target: UniProt:Q99683
Sequence (Q99683 1-1374): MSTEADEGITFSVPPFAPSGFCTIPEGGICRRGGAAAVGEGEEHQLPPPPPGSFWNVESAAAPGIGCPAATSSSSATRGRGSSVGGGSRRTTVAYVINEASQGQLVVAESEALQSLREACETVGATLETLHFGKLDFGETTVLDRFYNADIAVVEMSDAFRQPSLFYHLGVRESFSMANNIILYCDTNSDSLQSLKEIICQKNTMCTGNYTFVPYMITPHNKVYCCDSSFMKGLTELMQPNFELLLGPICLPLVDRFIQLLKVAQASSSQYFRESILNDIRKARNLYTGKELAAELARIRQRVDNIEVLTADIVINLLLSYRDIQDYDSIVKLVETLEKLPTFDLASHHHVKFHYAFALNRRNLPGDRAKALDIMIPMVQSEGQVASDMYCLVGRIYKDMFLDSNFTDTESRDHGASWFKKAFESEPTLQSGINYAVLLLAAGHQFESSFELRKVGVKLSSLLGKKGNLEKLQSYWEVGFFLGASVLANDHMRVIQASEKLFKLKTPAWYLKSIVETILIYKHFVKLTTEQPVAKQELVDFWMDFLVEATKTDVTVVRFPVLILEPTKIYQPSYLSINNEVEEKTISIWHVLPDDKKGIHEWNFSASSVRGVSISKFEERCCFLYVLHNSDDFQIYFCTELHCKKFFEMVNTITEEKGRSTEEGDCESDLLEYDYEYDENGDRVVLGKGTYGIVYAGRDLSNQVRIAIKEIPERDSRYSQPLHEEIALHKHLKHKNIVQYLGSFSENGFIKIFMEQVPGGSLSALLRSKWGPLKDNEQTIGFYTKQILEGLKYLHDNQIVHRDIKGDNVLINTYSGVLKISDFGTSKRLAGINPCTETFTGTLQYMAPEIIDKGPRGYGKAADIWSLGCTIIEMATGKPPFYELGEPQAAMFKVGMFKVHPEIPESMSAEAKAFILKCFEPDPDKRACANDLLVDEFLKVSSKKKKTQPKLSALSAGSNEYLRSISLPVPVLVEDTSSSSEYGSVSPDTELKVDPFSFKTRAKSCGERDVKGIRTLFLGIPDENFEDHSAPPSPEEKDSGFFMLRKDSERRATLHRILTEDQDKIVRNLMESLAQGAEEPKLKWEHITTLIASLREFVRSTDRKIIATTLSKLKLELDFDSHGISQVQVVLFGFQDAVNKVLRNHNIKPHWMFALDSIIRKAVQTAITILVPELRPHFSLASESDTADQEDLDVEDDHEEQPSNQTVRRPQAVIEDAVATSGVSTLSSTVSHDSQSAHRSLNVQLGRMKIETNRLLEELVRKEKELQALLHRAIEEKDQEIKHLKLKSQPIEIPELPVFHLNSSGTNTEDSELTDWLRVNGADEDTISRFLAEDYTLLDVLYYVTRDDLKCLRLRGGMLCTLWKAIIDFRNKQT
pIC50: −log10 of the molar value.

CC(C)n1nnnc1-c1cccc(NC(=O)c2cc3sc(N4CCCCC4)nc3cc2F)n1: < 6.00
CC(C)n1cnnc1-c1cccc(NC(=O)c2cc3sc(NCC4CC4)nc3cc2F)n1: 7.00 to 8.00
CC(C)n1cnnc1-c1cccc(NC(=O)c2ccc3nc(N4CC5CC5C4)sc3c2)n1 (stereo not shown): 7.00 to 8.00

Moving on to another compound below.
Dear colleague, I am looking for the recorded pIC50 of the following compound: `CC(C)n1nnnc1-c1cccc(NC(=O)c2cc3sc(N(C)C4CC4)nc3cc2F)n1`
< 6.00

====

Known IC50 of a selection of compounds
Biological target: ASK1 (Homo sapiens)
Sequence (Q99683 1-1374): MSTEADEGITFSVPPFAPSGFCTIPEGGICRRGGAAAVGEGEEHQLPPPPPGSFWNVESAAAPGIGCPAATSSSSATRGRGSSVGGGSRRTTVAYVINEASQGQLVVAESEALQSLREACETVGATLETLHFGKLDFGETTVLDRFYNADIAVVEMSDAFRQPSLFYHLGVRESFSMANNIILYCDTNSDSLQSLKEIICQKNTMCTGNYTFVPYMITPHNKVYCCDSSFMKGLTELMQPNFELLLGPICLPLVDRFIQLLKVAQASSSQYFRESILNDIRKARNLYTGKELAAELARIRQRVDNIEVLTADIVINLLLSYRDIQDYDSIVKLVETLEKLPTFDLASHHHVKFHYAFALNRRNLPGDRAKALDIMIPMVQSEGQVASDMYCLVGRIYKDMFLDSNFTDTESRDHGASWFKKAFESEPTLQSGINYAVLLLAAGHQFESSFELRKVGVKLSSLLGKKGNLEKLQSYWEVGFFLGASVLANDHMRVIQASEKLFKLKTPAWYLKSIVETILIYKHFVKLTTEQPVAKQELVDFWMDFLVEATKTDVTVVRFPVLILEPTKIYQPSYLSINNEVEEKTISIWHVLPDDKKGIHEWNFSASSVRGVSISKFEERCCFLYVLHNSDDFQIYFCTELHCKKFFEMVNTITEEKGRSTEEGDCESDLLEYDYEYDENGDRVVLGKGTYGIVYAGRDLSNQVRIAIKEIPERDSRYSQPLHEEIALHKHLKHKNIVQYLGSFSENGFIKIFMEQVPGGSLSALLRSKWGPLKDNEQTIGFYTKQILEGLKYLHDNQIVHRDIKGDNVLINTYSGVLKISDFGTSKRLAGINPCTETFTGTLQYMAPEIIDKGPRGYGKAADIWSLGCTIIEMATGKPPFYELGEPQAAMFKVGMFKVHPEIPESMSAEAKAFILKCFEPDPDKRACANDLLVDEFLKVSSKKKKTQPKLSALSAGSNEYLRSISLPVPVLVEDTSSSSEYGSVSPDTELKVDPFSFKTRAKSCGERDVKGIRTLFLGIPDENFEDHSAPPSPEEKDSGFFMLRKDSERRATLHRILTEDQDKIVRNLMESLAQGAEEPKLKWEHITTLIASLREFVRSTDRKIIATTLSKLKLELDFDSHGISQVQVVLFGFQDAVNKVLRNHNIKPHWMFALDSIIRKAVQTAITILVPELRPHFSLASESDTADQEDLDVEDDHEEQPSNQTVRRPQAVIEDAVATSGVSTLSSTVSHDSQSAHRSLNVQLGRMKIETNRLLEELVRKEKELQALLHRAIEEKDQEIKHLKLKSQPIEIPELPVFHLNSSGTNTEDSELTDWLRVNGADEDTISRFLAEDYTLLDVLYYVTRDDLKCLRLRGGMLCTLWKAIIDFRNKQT

CC(C)n1cnnc1-c1cccc(NC(=O)c2cc3sc(N4CCCCC4)nc3cc2F)n1 [Example 30]: 1 to 10 nM
CC(C)n1cnnc1-c1cccc(NC(=O)c2ccc3nc(N4CCOCC4)sc3c2)n1 [Example 61]: 10 to 100 nM
CCN(CC)c1nc2cc(F)c(C(=O)Nc3cccc(-c4nnnn4C(C)C)n3)cc2s1 [Example 35]: > 1000 nM
CC(C)n1nnnc1-c1cccc(NC(=O)c2cc3sc(N4CCN(C5CC5)CC4)nc3cc2F)n1 [Example 42]: > 1000 nM
CC(C)n1cnnc1-c1cccc(NC(=O)c2cc3sc(N(C)CC4CC4)nc3cc2F)n1 [Example 11]: 1 to 10 nM
CCCCNc1nc2cc(F)c(C(=O)Nc3cccc(-c4nncn4C(C)C)n3)cc2s1 [Example 27]: 1 to 10 nM

Dear colleague, I am looking for the recorded IC50 of the following compound: CC(C)n1cnnc1-c1cccc(NC(=O)c2ccc3nc(N(C)C)sc3c2)n1 [Example 23]
10 to 100 nM

Dear colleague, I am looking for the recorded IC50 of the following compound: CC(C)n1cnnc1-c1cccc(NC(=O)c2ccc3nc(N4CCC4)sc3c2)n1 [Example 21]
100 to 1000 nM

Dear colleague, I am looking for the recorded IC50 of the following compound: CC(C)n1cnnc1-c1cccc(NC(=O)c2ccc3nc(N4C5CCCC4CC5)sc3c2)n1 [Example 51]
10 to 100 nM

Dear colleague, I am looking for the recorded IC50 of the following compound: CC(C)n1cnnc1-c1cccc(NC(=O)c2ccc3nc(-c4ccc(C(C)(C)C)cc4)sc3c2)n1 [Example 58]
> 1000 nM

Dear colleague, I am looking for the recorded IC50 of the following compound: CC(C)n1nnnc1-c1cccc(NC(=O)c2cc3sc(C4CCC4)nc3cc2F)n1 [Example 36]
100 to 1000 nM

Dear colleague, I am looking for the recorded IC50 of the following compound: CC(C)n1cnnc1-c1cccc(NC(=O)c2ccc3ncn(C)c3c2)n1 [Example 1]
100 to 1000 nM
